target: human recombinant ROCK II (Homo sapiens); construct: N-terminal His6-tagged recombinant human ROCK-II residues 11-552; His6 (N); purchased Millipore GmbH, Schwalbach, Germany; test: Determination of Rho kinase inhibition (Caliper peptide phosphorylation assay); assay type: biochemical; settings: 60 min at 32° C., negative decadal logarithm of the IC50
Sequence (O75116 11-552): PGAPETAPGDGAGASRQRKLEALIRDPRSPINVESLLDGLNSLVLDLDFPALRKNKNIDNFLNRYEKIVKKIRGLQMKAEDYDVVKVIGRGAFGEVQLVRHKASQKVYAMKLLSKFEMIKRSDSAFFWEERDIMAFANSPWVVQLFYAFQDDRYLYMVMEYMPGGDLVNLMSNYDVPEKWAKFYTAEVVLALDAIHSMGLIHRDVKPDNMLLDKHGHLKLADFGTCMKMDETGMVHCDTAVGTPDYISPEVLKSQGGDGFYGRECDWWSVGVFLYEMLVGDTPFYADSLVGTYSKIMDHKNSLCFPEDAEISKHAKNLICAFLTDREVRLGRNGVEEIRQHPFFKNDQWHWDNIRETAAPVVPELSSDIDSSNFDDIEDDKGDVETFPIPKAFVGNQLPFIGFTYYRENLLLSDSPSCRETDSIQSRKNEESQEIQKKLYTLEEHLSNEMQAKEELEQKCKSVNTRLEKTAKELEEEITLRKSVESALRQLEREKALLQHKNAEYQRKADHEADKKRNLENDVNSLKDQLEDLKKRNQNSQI
measurement.kind: pIC50

Examples with answers:
CCC(N)[C@]1(c2cccc(C(F)(F)F)c2)CC[C@H](Oc2cc3cc[nH]c(=O)c3cc2Cl)CC1 (stereo partly shown) [Example 83] = +++++ (6.0≦pIC50<7.0)
CCC(N)[C@]1(c2cccc(OC(F)(F)F)c2)CC[C@H](Oc2cc3cc[nH]c(=O)c3cc2Cl)CC1 (stereo partly shown) [Example 84] = +++++ (6.0≦pIC50<7.0)
NC(CF)[C@]1(c2ccc(F)cc2)CC[C@H](Oc2cc3cc[nH]c(=O)c3cc2Cl)CC1 (stereo partly shown) [Example 114] = +++++++ (8.0≦pIC50)
COCCC(N)[C@]1(c2ccc(F)cc2)CC[C@H](Oc2cc3cc[nH]c(=O)c3cc2Cl)CC1 (stereo partly shown) [Example 115] = +++++ (6.0≦pIC50<7.0)
CC(N)[C@]1(c2ccc(F)cc2)CC[C@H](Oc2cc3cc[nH]c(=O)c3cc2Cl)CC1 (stereo partly shown) [Example 15] = +++++++ (8.0≦pIC50)

# pIC50 of CCC(N)[C@]1(c2ccccc2)CC[C@H](Oc2c(C)cc3cnccc3c2C)CC1 (stereo partly shown) [Example 90] = +++++ (6.0≦pIC50<7.0)

# pIC50 of CCC(N)[C@]1(c2ccc(F)c(F)c2)CC[C@H](Oc2c(F)cc3c(=O)[nH]ccc3c2C)CC1 (stereo partly shown) [Example 67] = +++++ (6.0≦pIC50<7.0)

# pIC50 of CCC(N)[C@]1(c2ccccc2OC)CC[C@H](Oc2cc3cc[nH]c(=O)c3cc2Cl)CC1 (stereo partly shown) [Example 69] = +++++++ (8.0≦pIC50)

# pIC50 of CC(N)[C@]1(c2ccc(F)cc2)CC[C@@H](Oc2cc3cc[nH]c(=O)c3cc2Cl)CC1 (stereo partly shown) [Example 13] = ++++++ (7.0≦pIC50<8.0)

# pIC50 of CCC(N)[C@]1(c2cccc(OC)c2)CC[C@H](Oc2cc3cc[nH]c(=O)c3cc2Cl)CC1 (stereo partly shown) [Example 28] = +++++++ (8.0≦pIC50)

# pIC50 of CCC(N)[C@]1(c2ccc(F)c(OC)c2)CC[C@H](Oc2cc3cc[nH]c(=O)c3cc2Cl)CC1 (stereo partly shown) [Example 62] = +++++++ (8.0≦pIC50)

# pIC50 of CCC(N)C1(c2ccc(F)cc2)CC(Oc2cc3cc[nH]c(=O)c3cc2Cl)C1 (stereo not shown) [Example 125] = +++++ (6.0≦pIC50<7.0)

# pIC50 of CC(C)(N)[C@]1(c2ccccc2)CC[C@H](Oc2cc3cc[nH]c(=O)c3cc2Cl)CC1 [Example 25] = +++++++ (8.0≦pIC50)

# pIC50 of CCC(N)[C@]1(c2cccc(Br)c2)CC[C@@H](Oc2cc3cc[nH]c(=O)c3cc2Cl)CC1 (stereo partly shown) [Example 16] = ++++++ (7.0≦pIC50<8.0)

# pIC50 of CCC(N)[C@@]1(c2ccccc2)C[C@@H]2C[C@H]1CC2Oc1cc2cc[nH]c(=O)c2cc1Cl (stereo partly shown) [Example 100] = +++++++ (8.0≦pIC50)

# pIC50 of CCCC(N)[C@]1(c2ccc(F)cc2)CC[C@@H](Oc2cc3cc[nH]c(=O)c3cc2Cl)CC1 (stereo partly shown) [Example 12] = +++++ (6.0≦pIC50<7.0)

Reference for the values: patent US8541449B2
